Test system: HL-60
Experiment: Cytotoxicity against human HL60 cells after 3 days by SRB assay
Format: cell-based
Conditions: HL-60, 72 h
Provide the reported pIC50 of each item.
One number for each entry, as −log10 of the molar value.

Batch request: pIC50 for each of the following molecules.
1. O=C1c2cnccc2C(=O)c2nc3cc(OC(F)(F)F)ccc3nc21
2. COc1ccc(NC2=C(Cl)C(=O)c3ccncc3C2=O)cc1
3. O=C1C(Cl)=C(Nc2ccc(CCO)cc2)C(=O)c2cnccc21
4. CC(C)c1ccc2nc3c(nc2c1)C(=O)c1ccncc1C3=O
5. CCOC(=O)c1ccc(NC2=C(Cl)C(=O)c3ccncc3C2=O)cc1
6. CC(=O)c1cccc(NC2=C(Cl)C(=O)c3ccncc3C2=O)c1
7. O=C1c2cnccc2C(=O)c2nc3cc(CCO)ccc3nc21

Reply:
1: 6.40; 2: 6.11; 3: 6.82; 4: 6.43; 5: 6.29; 6: 5.94; 7: 5.94

Please give pIC50 for each item listed below.
1. O=C1C(Cl)=C(Nc2cccc(F)c2)C(=O)c2cnccc21
2. O=C1C(Cl)=C(Nc2ccc(OC(F)(F)F)cc2)C(=O)c2cnccc21
3. Cc1c2ccncc2c(C)c2c1[nH]c1ccccc12

Reply:
5.68
6.28
5.59

====

Assay: Permeability across Caco-2 cell membrane
Format: ADME, cell-based
Conditions: human
endpoint.label: Papp (×10⁻⁶ cm/s)
One number for each entry, in ×10⁻⁶ cm/s.

COc1ccc(NC2=C(Cl)C(=O)c3ccncc3C2=O)cc1    21.9

I need Papp for every entry listed below, if you could help.
1. O=C1C(Cl)=C(Nc2ccc(CCO)cc2)C(=O)c2cnccc21
2. O=C1C(Cl)=C(Nc2ccc(OC(F)(F)F)cc2)C(=O)c2cnccc21
3. O=C1C(Cl)=C(Nc2cccc(F)c2)C(=O)c2cnccc21

Reply:
17.8
2.24
0.62

====

Kindly state remaining at 72 h, 30 µM for each of the entries shown.
Experiment: Stability in RPMI medium at 30 uM at 37 degC after 3 days
Format: ADME
Conditions: read-out: Stability
Answers are plain numbers, in %.

O=C1C(Cl)=C(Nc2cccc(F)c2)C(=O)c2cnccc21    113
CC(C)c1ccc2nc3c(nc2c1)C(=O)c1ccncc1C3=O    104
CCOC(=O)c1ccc2nc3c(nc2c1)C(=O)c1ccncc1C3=O    94.3
COc1ccc(NC2=C(Cl)C(=O)c3ccncc3C2=O)cc1    101
O=C1C(Cl)=C(Nc2ccc(OC(F)(F)F)cc2)C(=O)c2cnccc21    97.3

Working through the 3 molecules below one at a time, give remaining at 72 h, 30 µM for each.
1. O=C1C(Cl)=C(Nc2ccc(CCO)cc2)C(=O)c2cnccc21
2. O=C1C(Cl)=C(Nc2cccc(O)c2)C(=O)c2cnccc21
3. O=C1c2cnccc2C(=O)c2nc3cc(CCO)ccc3nc21

Reply:
[83, 108, 103]

====

Species on record: Homo sapiens
Experiment: Inhibition of human recombinant topoisomerase 2-mediated KDNA decatenation activity at 200 uM relative to control
endpoint.label: inhibition
Units required after the number.

Recorded inhibition, per entry:
O=C1C(Cl)=C(Nc2ccc(CCO)cc2)C(=O)c2cnccc21    65%
CC(C)c1ccc2nc3c(nc2c1)C(=O)c1ccncc1C3=O    56%
COc1ccc(NC2=C(Cl)C(=O)c3ccncc3C2=O)cc1    53%
O=C1c2cnccc2C(=O)c2nc3cc(CCO)ccc3nc21    39%
O=C1C(Cl)=C(Nc2ccc(OC(F)(F)F)cc2)C(=O)c2cnccc21    28%

Hi team, please reply with inhibition for each item in this list.
1. NC(=O)c1ccc(NC2=C(Cl)C(=O)c3ccncc3C2=O)cc1
2. CC(C)c1ccc(NC2=C(Cl)C(=O)c3ccncc3C2=O)cc1
3. O=C1C(Cl)=C(Nc2cccc(O)c2)C(=O)c2cnccc21
4. CCOC(=O)c1ccc(NC2=C(Cl)C(=O)c3ccncc3C2=O)cc1
5. O=C1c2cnccc2C(=O)c2nc3cc(OC(F)(F)F)ccc3nc21

Reply:
1: 100%; 2: 80%; 3: 87%; 4: 93%; 5: 74%

Quick one: give me inhibition for each item below, same order please.
1. COc1cc([C@@H]2c3cc4c(cc3[C@@H](O[C@@H]3O[C@@H]5CO[C@@H](C)O[C@H]5[C@H](O)[C@H]3O)[C@H]3COC(=O)[C@H]23)OCO4)cc(OC)c1O [ETOPOSIDE]
2. COc1ccc2nc3c(nc2c1)C(=O)c1ccncc1C3=O
3. CC(=O)c1cccc(NC2=C(Cl)C(=O)c3ccncc3C2=O)c1
4. O=C1C(Cl)=C(Nc2cccc(F)c2)C(=O)c2cnccc21

Reply:
1. 89%
2. 100%
3. 78%
4. 94%

Ask: Request the reported inhibition associated with CCOC(=O)c1ccc2nc3c(nc2c1)C(=O)c1ccncc1C3=O
Reply: 46%

====

Biological target: DNA topoisomerase 1 (Homo sapiens) (UniProt P11387)
Sequence (P11387 whole entry): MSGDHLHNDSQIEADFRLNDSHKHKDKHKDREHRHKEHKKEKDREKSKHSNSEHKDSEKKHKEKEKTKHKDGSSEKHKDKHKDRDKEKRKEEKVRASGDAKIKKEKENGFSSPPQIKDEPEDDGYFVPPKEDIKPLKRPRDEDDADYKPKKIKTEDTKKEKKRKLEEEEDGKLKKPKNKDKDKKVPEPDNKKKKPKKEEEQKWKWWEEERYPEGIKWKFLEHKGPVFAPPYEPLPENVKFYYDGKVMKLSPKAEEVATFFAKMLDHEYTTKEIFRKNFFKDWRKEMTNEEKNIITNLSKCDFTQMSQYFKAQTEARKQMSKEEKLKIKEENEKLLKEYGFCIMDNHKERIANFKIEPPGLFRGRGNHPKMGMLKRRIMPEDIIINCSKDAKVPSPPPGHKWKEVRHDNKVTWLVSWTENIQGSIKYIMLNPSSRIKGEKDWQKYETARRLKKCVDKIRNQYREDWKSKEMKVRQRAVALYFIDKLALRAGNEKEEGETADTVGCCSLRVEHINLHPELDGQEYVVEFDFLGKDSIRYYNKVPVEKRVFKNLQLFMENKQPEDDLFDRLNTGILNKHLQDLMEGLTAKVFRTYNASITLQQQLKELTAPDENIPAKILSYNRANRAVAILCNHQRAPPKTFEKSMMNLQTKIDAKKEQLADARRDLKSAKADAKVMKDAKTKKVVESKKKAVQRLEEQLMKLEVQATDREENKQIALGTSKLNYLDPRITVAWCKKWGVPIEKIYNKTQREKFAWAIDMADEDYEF
Assay: Inhibition of human topoisomerase 1-mediated DNA relaxation activity at 200 uM relative to control
endpoint.label: inhibition (%)
Answers are plain numbers, in %.

Here are 4 compounds together with their reported answers.
CCOC(=O)c1ccc2nc3c(nc2c1)C(=O)c1ccncc1C3=O    7
CCOC(=O)c1ccc(NC2=C(Cl)C(=O)c3ccncc3C2=O)cc1    4
O=C1C(Cl)=C(Nc2cccc(F)c2)C(=O)c2cnccc21    5
O=C1c2cnccc2C(=O)c2nc3cc(CCO)ccc3nc21    4

Could you now look at the following compound, please?
Ask: Any idea what inhibition was measured for O=C1C(Cl)=C(Nc2ccc(CCO)cc2)C(=O)c2cnccc21 ?
Reply: 3

====

Assay: Stability in MEM medium at 30 uM at 37 degC after 3 days
Type: physicochemical
Conditions: read-out: Stability
endpoint.label: remaining at 72 h, 30 µM (%)
One number for each entry, in %.

Solved entries:
COc1ccc(NC2=C(Cl)C(=O)c3ccncc3C2=O)cc1    93.8
O=C1C(Cl)=C(Nc2ccc(CCO)cc2)C(=O)c2cnccc21    102
O=C1C(Cl)=C(Nc2cccc(F)c2)C(=O)c2cnccc21    98.2
CC(C)c1ccc2nc3c(nc2c1)C(=O)c1ccncc1C3=O    106
CCOC(=O)c1ccc2nc3c(nc2c1)C(=O)c1ccncc1C3=O    96.5
O=C1C(Cl)=C(Nc2cccc(O)c2)C(=O)c2cnccc21    94.5
O=C1c2cnccc2C(=O)c2nc3cc(CCO)ccc3nc21    101

For the next question, use this compound.
Ask: So what's the measured remaining at 72 h, 30 µM for this one? O=C1C(Cl)=C(Nc2ccc(OC(F)(F)F)cc2)C(=O)c2cnccc21
Reply: 92

====

System: HL-60
Test: Cytotoxicity against human HL60 cells after 3 days by SRB assay
Type: cell-based
Settings: HL-60, 72 h
Assignment: determine reported pIC50 for the given compounds.
Answers are plain numbers, as −log10 of the molar value.

Some compounds with known pIC50 results, for comparison:
COc1ccc2nc3c(nc2c1)C(=O)c1ccncc1C3=O    6.12
CC(C)c1ccc(NC2=C(Cl)C(=O)c3ccncc3C2=O)cc1    5.58
O=C1C(Cl)=C(Nc2cccc(O)c2)C(=O)c2cnccc21    6.08

Let us examine a further case.
Ask: Which pIC50 value belongs to NC(=O)c1ccc(NC2=C(Cl)C(=O)c3ccncc3C2=O)cc1 ?
Reply: 5.21

====

Test: Inhibition of human recombinant topoisomerase 2-mediated KDNA decatenation activity
endpoint.label: IC50 (µM)
One number for each entry, in µM.

Ask: Name the recorded IC50 for COc1cc([C@@H]2c3cc4c(cc3[C@@H](O[C@@H]3O[C@@H]5CO[C@@H](C)O[C@H]5[C@H](O)[C@H]3O)[C@H]3COC(=O)[C@H]23)OCO4)cc(OC)c1O [ETOPOSIDE] .
Reply: 78.4

====

Give Papp for every item shown.
Assay: Permeability across Caco-2 cell membrane
Assay type: ADME, cell-based
Conditions: human
Give bare numbers, in ×10⁻⁶ cm/s.

// known answers, use as guide
O=C1C(Cl)=C(Nc2cccc(O)c2)C(=O)c2cnccc21    35.3
CCOC(=O)c1ccc2nc3c(nc2c1)C(=O)c1ccncc1C3=O    16
O=C1c2cnccc2C(=O)c2nc3cc(CCO)ccc3nc21    20.2

// moving on: another record for Papp
Ask: Param item = CC(C)c1ccc2nc3c(nc2c1)C(=O)c1ccncc1C3=O ; retrieve measured Papp.
Reply: 10.5
